- study.target: cathepsin L (Homo sapiens)
- Construct: made in house
- Sequence (P07711 114-333): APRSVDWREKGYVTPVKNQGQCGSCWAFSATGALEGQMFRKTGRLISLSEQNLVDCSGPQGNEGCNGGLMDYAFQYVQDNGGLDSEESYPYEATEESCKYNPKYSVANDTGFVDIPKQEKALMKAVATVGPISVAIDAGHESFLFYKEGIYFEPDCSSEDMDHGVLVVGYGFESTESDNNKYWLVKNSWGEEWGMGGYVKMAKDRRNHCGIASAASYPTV
- experiment.description: Kinetic parameters of ACC substrates with cathepsin L
- Format: biochemical
- measurement.setup: Fig. 4B; ACC substrates; 100 mM sodium acetate, 100 mM NaCl, 10 mM DTT, 1 mM EDTA, pH 5.5, 37 °C; cathepsin L 0.1–0.5 nM; average of at least three, SD below 15%
Non-standard residues stand in square brackets, D forms with d. *: point of attachment. Phe(3-Cl) = N[C@@H](Cc1cccc(Cl)c1)C(=O)O; ACC = NC(=O)Cc1cc(=O)oc2cc(N*)ccc12; Orn = NCCC[C@H](N)C(=O)O; Dab = NCC[C@H](N)C(=O)O; Dap = NC[C@H](N)C(=O)O
Each entry below carries its recorded kcat/KM.

Consider the following illustrative entries.
>  <substance>
Ac-[Dap][Orn][Phe(3-Cl)]R-{ACC} (SMILES CC(=O)N[C@@H](CN)C(=O)N[C@@H](CCCN)C(=O)N[C@@H](Cc1cccc(Cl)c1)C(=O)N[C@@H](CCCNC(=N)N)C(=O)Nc1ccc2c(CC(N)=O)cc(=O)oc2c1)

>  <kcat/KM>
36,310,000 M^-1s^-1

$$$$
>  <substance>
Ac-[Dab][Orn][Phe(3-Cl)]R-{ACC} (SMILES CC(=O)N[C@@H](CCN)C(=O)N[C@@H](CCCN)C(=O)N[C@@H](Cc1cccc(Cl)c1)C(=O)N[C@@H](CCCNC(=N)N)C(=O)Nc1ccc2c(CC(N)=O)cc(=O)oc2c1)

>  <kcat/KM>
35,070,000 M^-1s^-1

$$$$
>  <substance>
Ac-HRFR-{ACC} (SMILES CC(=O)N[C@@H](Cc1c[nH]cn1)C(=O)N[C@@H](CCCNC(=N)N)C(=O)N[C@@H](Cc1ccccc1)C(=O)N[C@@H](CCCNC(=N)N)C(=O)Nc1ccc2c(CC(N)=O)cc(=O)oc2c1) [reference compound]

>  <kcat/KM>
13,050,000 M^-1s^-1

$$$$

Now look at this one.
kcat/KM recorded for this substance, Ac-[Dap][Orn][Phe(3-Cl)]K-{ACC} (SMILES CC(=O)N[C@@H](CN)C(=O)N[C@@H](CCCN)C(=O)N[C@@H](Cc1cccc(Cl)c1)C(=O)N[C@@H](CCCCN)C(=O)Nc1ccc2c(CC(N)=O)cc(=O)oc2c1) , is 19,810,000 M^-1s^-1
